System: MALME-3M melanoma
PROCEDURE TEXT: NCI tumour cell line growth inhibition, 48 h
OBSERVED PROPERTY: TGI

| MOLECULE | MEASURED TARGET | OBSERVED PROPERTY | MEASURED RESULT |
| --- | --- | --- | --- |
| COC(=O)[C@@H]1CN(C(=O)CCc2ccccc2)C(=O)N1C(=O)OCc1ccccc1 | MALME-3M melanoma | TGI | > 100 µM |
| O=C1C=C(Br)c2c(-c3ccccc3)oc3cccc1c23 | MALME-3M melanoma | TGI | > 100 µM |
| COc1ccc(NC(=O)CC(=O)N2N=C(C)C(N=Nc3ccc(S(=O)(=O)c4ccc(N=NC5C(=O)N(C(=O)CC(=O)Nc6ccc(OC)cc6)N=C5C)cc4)cc3)C2=O)cc1 (centres undefined) | MALME-3M melanoma | TGI | > 100 µM |

Consider the molecule CN(C(=O)Cc1cc(Cl)c(Cl)cc1N=C=S)[C@H]1CCCC[C@@H]1N1CCCC1 and give its measured TGI.
31.8 µM

* * *

Test system: RXF 393 renal
PROCEDURE TEXT: NCI tumour cell line growth inhibition, 48 h
Listed here: items and their measured TGI.
Give your result in µM as a bare value.

| COMPOUND | OBSERVED PROPERTY | MEASURED RESULT |
| --- | --- | --- |
| CCCCCCCCCCCCCCCCCC(=O)OCC(COC1OC(COP(=O)(O)O)C(O)C(O)C1O)OC(=O)CCCCCCCCCCCCCCCCC (centres undefined) | TGI | 16.8 |

# ---- query compound ----
Field request: TGI | item: Clc1cc(Cl)c(OCC#CI)cc1Cl
6.28

* * *

Tested on: HOP-62 NSCLC
PROCEDURE TEXT: NCI tumour cell line growth inhibition, 48 h
OBSERVED PROPERTY: GI50

| COMPOUND | GI50 |
| --- | --- |
| N#Cc1c(N/N=C/c2c(Cl)cccc2Cl)nc(N)nc1N1CCOCC1 | 13.9 µM |

What GI50 value was documented for this compound, N/C(=N\N=C\c1ccc(-c2ccccc2)cc1)N[N+](=O)[O-] ?
2.64 µM

Which GI50 is reported for this compound? O=C(C1CCCCC1)[C@@H]1[C@]2(C(=O)NC3CCCCC32)[C@@H]2CCCN2[C@@]12C(=O)NC1CCC(Cl)CC12 (stereo not given in full)
123 µM

What value of GI50 has been reported for the following compound? Cc1ccc(C2=NOC3=c4ccccc4=CSC3=C2c2ccc([N+](=O)[O-])cc2)cc1
13.6 µM

Could you tell me which GI50 is on file for CCN1CCC(CCOC)(CN2c3ccccc3Sc3ccc(Cl)cc32)C1 (stereo not given) ?
1.67 µM

* * *

Listing: TGI of selected molecules
Tested on: CCRF-CEM leukemia
PROCEDURE TEXT: NCI tumour cell line growth inhibition, 48 h

See these solved cases before continuing.
| MOLECULE | OBSERVED PROPERTY | MEASURED RESULT |
| --- | --- | --- |
| O=C1C=C(Br)c2c(-c3ccccc3)oc3cccc1c23 | TGI | > 47.6 µM |
| O=C(/C(=C/c1ccc([N+](=O)[O-])cc1)c1ccccc1)c1ccccc1 | TGI | > 100 µM |
| O=C(Cn1c2c(c3ccccc31)CCCC2)NC1CCCCC1 | TGI | > 100 µM |

What does the data say about its TGI? Entry: CC12Nc3ccccc3N1C(=O)c1ccccc12 (stereo unspecified)
> 100 µM

Given Brc1cccc(C2SCc3nc4ccccc4n32)c1 (stereo unspecified) , state its recorded TGI.
> 100 µM

What TGI value was documented for this molecule, COc1nc(N)c(NC2OC(CO)C(O)C2O)c(=O)[nH]1 (stereo unspecified) ?
> 100 µM

* * *

Tested on: SK-MEL-2 melanoma
PROCEDURE TEXT: NCI tumour cell line growth inhibition, 48 h
Each record here notes measured TGI.

Reference set, count: 3
| MOLECULE | TGI |
| --- | --- |
| CC(=O)C1=CSC2[C@H](NC(=O)Cc3ccccc3)C(=O)N2C1C(=O)OC(c1ccccc1)c1ccccc1 (some centres not stated) | > 100 µM |
| COc1ccc(C2CC(c3cc(OC)c(OC)c(OC)c3)=NN2C(C)=O)cc1OCC(=O)Nc1nc2ccc(C(F)(F)F)cc2s1 (configuration not stated) | 20.4 µM |
| O=c1oc2ccccc2c2c(=O)c3ccc(OC/C(=N/O)c4ccc(Cl)cc4)cc3oc12 | 24.1 µM |

Field request: TGI | item: Nn1c(-c2ccccc2Cl)nc2ccccc2c1=O
> 100 µM

Any idea what TGI was measured for Cc1cc2c3ccc(C)[n+](C)c3ccc2n1C ?
25 µM

Please report the recorded TGI for C[C@]12CC[C@H]3[C@@H](CCC4=CC(=O)CC[C@@H]43)[C@@H]1CC[C@@H]2OC(=O)CCc1ccccc1 .
> 100 µM

Give the measured TGI of CN(C)c1ccc(/C=C\c2cccc[n+]2C)cc1 .
> 100 µM

I'd like to know its TGI. The molecule in question is O=C1C=C(Br)c2c(-c3ccccc3)oc3cccc1c23
> 100 µM

So what's the measured TGI for this one? CC12CCC(C(=O)OC1=O)C(C)(C)O2 (configuration not stated)
> 100 µM

Given the molecule N#Cc1c(N)oc(-c2cccc([N+](=O)[O-])c2)c1C#N , what is its reported TGI?
> 100 µM

State the recorded TGI for this entry: O=C(N/N=C/c1ccc2c(c1)CCC2)c1ccccc1O
60 µM

Given the molecule Cn1cnc2nc(Cl)nc(NC(C)(C)C(C)(C)O)c21 , what is its reported TGI?
> 100 µM

* * *

Test system: HOP-92 NSCLC
PROCEDURE TEXT: NCI tumour cell line growth inhibition, 48 h
# if value of TGI reaches 8 µM, tag yes (1); if it stays below, tag no (0)

// below: answered compounds
| COMPOUND | ANSWER LABEL |
| --- | --- |
| C/C=C/[P+](c1ccccc1)(c1ccccc1)c1ccccc1 | no (0) |
| CC(=O)NC1=C(OS(=O)(=O)c2ccc(C)cc2)CN(C)C1=O | yes (1) |
| COC(=O)C(Cc1ccccc1)NC(=O)NC(=O)NC(=O)CI (stereo not given) | no (0) |
| CC(C)(C)c1n[nH]c(=S)n(/N=C/c2ccc(F)c(Oc3ccccc3)c2)c1=O | yes (1) |
| CCOC(=O)C(=O)Nc1c(CC)cccc1C(C)C | yes (1) |
| Cc1ccccc1N=Nc1ccc(N=Nc2c(O)ccc3ccccc23)c(C)c1 | yes (1) |

Hi team, for N#C/C(=C\c1c(-c2ccccc2)[nH]c2ccccc12)S(=O)(=O)c1ccccc1 , is the recorded TGI at or above 8 µM?
yes (1)

Could you please find out whether CC1=C(CCC(C)N(C)Cc2ccc(OCCCN3CCCC3)cc2)C(C)(C)CCC1 (stereo not given) has TGI that meets 8 µM or exceeds it?
yes (1)

Determine whether measured TGI meets or exceeds 8 µM for Cc1ccc(C2=NOC3=c4ccccc4=CSC3=C2c2ccc([N+](=O)[O-])cc2)cc1
yes (1)

Quick check: does CCCN(C(=O)c1c(Cl)nnc(Cl)c1C(=O)c1cc(Cl)nnc1Cl)c1cc(Cl)nnc1Cl have TGI greater than or equal to 8 µM?
yes (1)

* * *

Test system: TK-10 renal
PROCEDURE TEXT: NCI tumour cell line growth inhibition, 48 h
Here, each record is paired with measured TGI data.
Could you give me the number in µM? Just the number is fine.

| CHEMICAL STRING | UNIT LABEL | MEASURED RESULT |
| --- | --- | --- |
| COc1cc2c(cc1OCCCCOc1cc3c(cc1OC)C(=O)N1CCC[C@H]1CN3)N=C[C@@H]1CCCN1C2=O | µM | 8.38 |

Now take the following compound into account.
Need TGI of CC1=C2C(=O)c3ccccc3C(=O)[C@H]2[C@H]2CCO[C@H]2O1 , thanks.
67

* * *

Test system: NCI/ADR-RES ovarian
PROCEDURE TEXT: NCI tumour cell line growth inhibition, 48 h
Each record here notes measured TGI.

Examples with their reported TGI follow.
| CHEMICAL STRING | TGI |
| --- | --- |
| CN(C)c1ccc(N=Nc2ccc3nc[nH]c3c2)cc1 | > 100 µM |
| COC(=O)c1c2n(c3ccccc13)C[C@H]1OC(C)(C)O[C@@H]21 | > 100 µM |
| NCCCN(CCCCN(CCCN)Cc1ccc2ccccc2c1)Cc1ccc2ccccc2c1 | 54.3 µM |
| O=C1C=C(Br)c2c(-c3ccccc3)oc3cccc1c23 | > 100 µM |
| Cc1sc(Cc2ccccc2)nc1-c1ccc(N)cc1 | > 100 µM |

Field: TGI (NCI/ADR-RES ovarian). Entry: CN(C)CCCN1c2ccccc2CCc2ccc(Cl)cc21
14.8 µM

Record N/C(=N\N=C\c1ccc(-c2ccccc2)cc1)N[N+](=O)[O-] : what is its TGI with NCI/ADR-RES ovarian?
> 86.1 µM

Hello, I am looking for reported TGI with NCI/ADR-RES ovarian for N=C(N)c1ccc(N2CCCN(c3ccc(C(=N)N)cc3)CC2)cc1 . Could you help?
> 100 µM
